Each entry below lists one item and its recorded melting point value.

Q: Need melting point, item O=C(O)Cc1csc(Nc2ccc(Br)c(F)c2)n1
Ans: 176 to 177 °C

Q: Reported melting point for CSc1ccc(NC(=O)Cc2csc(Nc3ccc(Cl)c(C(F)(F)F)c3)n2)cc1 : what is it?
Ans: 151 to 152 °C

Q: Requested field: melting point. Item: CC(C)(CC(=O)O)c1csc(Nc2ccc(Cl)c(C(F)(F)F)c2)n1
Ans: 160 to 165 °C

New cases:
Q: I have this molecule here, O=C(Cc1csc(Nc2ccc(Cl)c(C(F)(F)F)c2)n1)N1CCOCC1 , and I need its recorded melting point.
Ans: 210 to 211 °C

Q: Need melting point, item O=C(Cc1csc(Nc2ccc(Cl)c(C(F)(F)F)c2)n1)Nc1cccnc1
Ans: 191 to 192 °C

Q: Give the measured melting point of O=C(Cc1csc(Nc2ccc(Cl)c(C(F)(F)F)c2)n1)Nc1ccc(Cl)c(C(F)(F)F)c1 .
Ans: 108 to 112 °C

---

measured-property: melting point

Q: Request the reported melting point associated with NC(=O)Cc1csc(Nc2ccc(Cl)c(C(F)(F)F)c2)n1
Ans: 205 to 207 °C

Q: // lookup melting point for CC(=O)c1ccc(NC(=O)Cc2csc(Nc3ccc(Cl)c(C(F)(F)F)c3)n2)cc1
Ans: 194 to 195 °C

Others:
Q: // lookup melting point for COc1ccc(NC(=O)Cc2csc(Nc3ccc(Cl)c(C(F)(F)F)c3)n2)cc1
Ans: 179 to 180 °C

Q: Recorded melting point of O=C(Cc1csc(Nc2ccc(Cl)c(C(F)(F)F)c2)n1)N1CCSCC1 , please.
Ans: 185 to 187 °C

Q: Suppose we examine the molecule NNC(=O)Cc1csc(Nc2ccc(Cl)c(C(F)(F)F)c2)n1 ; what melting point value has been reported?
Ans: 115 to 118 °C

---

Measured melting point, listed per entry.

Example compounds with recorded melting point:
Q: Give the measured melting point of CNC(=O)Cc1csc(Nc2ccc(Cl)c(C(F)(F)F)c2)n1 [Example 3] .
Ans: 148 to 150 °C

Q: Param item = CC(=O)Nc1ccc(NC(=O)Cc2csc(Nc3ccc(Cl)c(C(F)(F)F)c3)n2)cc1 [Example 4-f] ; retrieve measured melting point.
Ans: 262 to 263 °C

Q: Item under review: Cc1ccc(Nc2nc(CC(=O)O)cs2)cc1C(F)(F)F [Example 2-i] . Reported melting point?
Ans: 154 to 155 °C

Further cases:
Q: Fill blank: measured melting point of the compound O=C(Cc1csc(Nc2ccc(Cl)c(C(F)(F)F)c2)n1)Nc1nccs1 [Example 4-g] is ____.
Ans: 196 to 198 °C

Q: Quick one: melting point of O=C(Cc1csc(Nc2ccc(Cl)c(C(F)(F)F)c2)n1)Nc1ccc(F)cc1 [Example 4-c] ?
Ans: 146 to 148 °C

Q: Look up melting point: O=C(O)c1csc(Nc2ccc(Cl)c(C(F)(F)F)c2)n1 [Example 5]
Ans: 254 to 256 °C

Q: Entry Cc1ccc(Nc2nc(CC(=O)O)cs2)cc1Cl [Example 2-b] has what melting point?
Ans: 142 to 144 °C

Q: Given the compound Cc1ccc(Nc2nc(CC(=O)O)cs2)cc1F [Example 2-e] , what is its reported melting point?
Ans: 147 to 148 °C

Q: Can you look up the measured melting point of COc1ccc(CNC(=O)Cc2csc(Nc3ccc(Cl)c(C(F)(F)F)c3)n2)cc1 [Example 4-k] for me?
Ans: 65 to 70 °C

Q: What value of melting point has been recorded for this entry: O=C(Cc1csc(Nc2ccc(Cl)c(C(F)(F)F)c2)n1)Nc1ccncc1 [Example 4-d]
Ans: 178 to 180 °C

Q: Look up melting point for this compound: CCOC(=O)Cc1csc(Nc2ccc(Cl)c(C(F)(F)F)c2)n1 [Example 1]
Ans: 150 to 152 °C

Q: melting point for O=C(O)Cc1csc(Nc2ccc(F)c(C(F)(F)F)c2)n1 [Example 2-h] ?
Ans: 167 to 169 °C

Q: What value of measured melting point is listed for CCOC(=O)Cc1csc(Nc2ccc(Br)c(C(F)(F)F)c2)n1 [Example 1-a] ?
Ans: 161 to 164 °C
